Where do the numbers come from? From PubChem BioAssay AID1578.

assay: NOD1 signaling inhibitors, primary screen, cell-based, luminescence, uHTS (AID 1578); conditions: NOD1-driven NF-kB luciferase reporter cells, at 4 µM;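 also: HEK-293T reporter cells stimulated with the NOD1 agonist gamma-tri-DAP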
About 3,000 (1%) of roughly 290,000 compounds were called active. Rule as the data show it: active = inhibition mostly above about 36% (no sharp cut-off); inactive = mostly below about 34%. The full list was thinned out, with actives kept by preference.
Labels: Y = active, N = inactive

{"columns": ["compound", "assigned.category"],
 "data": [
  ["Cc1cccc2c(=O)c(C(=O)NCCc3ccccc3)c[nH]c12", "N"],
  ["CCCCS(=O)(=O)C1CCS(=O)(=O)C1 (stereo not drawn)", "N"],
  ["C=C(C)c1cccc(C(C)(C)NC(=O)Nc2cc(C)ccc2OC)c1", "N"],
  ["CCOC(=O)c1c(N)sc(C(=O)Nc2ccccc2)c1C", "N"],
  ["COc1ccc(CNC(=O)CC(C)CC2=NS(=O)(=O)c3ccccc3N2)cc1 (stereo not drawn)", "N"],
  ["CCN(CC)C(=O)c1sc(NC(=S)N2CCN(C(=O)C3CCCO3)CC2)c(C(=O)OC)c1C (stereo not drawn)", "N"],
  ["COc1ccc(O)c(CN2CCC(n3nccc3NC(=O)CCOc3ccccc3)CC2)c1", "N"],
  ["COC(=O)c1sc(SC)c(S(=O)(=O)C(C)C)c1N/N=C(\\C#N)S(=O)(=O)c1ccccn1", "N"],
  ["O=S(=O)(/N=C(\\Sc1ccc(Cl)cc1)c1ccccc1)c1ccccc1", "N"],
  ["CCOC(=O)c1sc2ccccc2c1OC(=O)c1ccccc1OC", "N"],
  ["CCOC(=O)CSc1nc(-c2ccccc2)nc2ccc(F)cc12", "N"],
  ["CN(CCc1ccccn1)C1CCCN(S(=O)(=O)c2ccccc2)C1 (stereo not drawn)", "N"],
  ["Cc1cc(OCC(=O)Nc2ccncc2)ccc1Br", "N"],
  ["O=C1c2[nH]nc(-c3ccccc3O)c2C(c2ccccc2)N1Cc1ccco1 (stereo not drawn)", "N"],
  ["O=C(CC1COc2ccccc2O1)Nc1ccccn1 (stereo not drawn)", "N"],
  ["Cn1c(N2CCC(C(N)=O)CC2)nc2c1c(=O)n(Cc1ccc(Cl)cc1)c(=O)n2C", "N"],
  ["O=S1(=O)CCC(S(=O)(=O)N2CCCCCC2)C1 (stereo not drawn)", "Y"],
  ["Cc1cc(Nc2ccccc2)nc(NCc2ccccc2)n1", "N"],
  ["Cc1cc(OCC(=O)NCCN2CCOCC2)cc(C)c1Br", "N"],
  ["COc1ccc(Cc2nc3ccc(C(=O)N4CCCC4)cc3o2)cc1OC", "N"],
  ["CC(C(=O)O/N=C(\\N)c1ccccn1)c1ccc([N+](=O)[O-])cc1 (stereo not drawn)", "N"],
  ["Cc1nc2ccc(NC(=O)c3ccc(S(=O)(=O)N(C)c4ccccc4)cc3)cc2s1", "N"],
  ["Cc1ccc(S(=O)(=O)N2CCCN(S(=O)(=O)C3CCS(=O)(=O)C3)CC2)cc1 (stereo not drawn)", "N"],
  ["COc1cccc(N(C(=O)c2sc(C)nc2C)C(C(=O)NCC2CCCO2)c2ccccc2)c1 (stereo not drawn)", "N"],
  ["O=C(NCc1cccnc1)c1ccc(-c2cccc(Cl)c2Cl)o1", "Y"],
  ["CCOc1ccc(NC(=O)COC(=O)Cc2ccc(S(=O)(=O)N3CCOCC3)s2)cc1", "N"],
  ["CC(=O)Nc1ccc(-c2csc(-c3cccnc3)n2)cc1", "N"],
  ["COC(=O)c1sc(SC)c(S(=O)(=O)C(C)C)c1N/N=C(\\C#N)C(=O)c1ccccc1", "N"],
  ["Cc1cccc2nc(CSc3ncccc3C(=O)O)cn12", "N"],
  ["CCn1c(SCC(=O)Nc2nc(C)c(C)s2)nnc1-c1ccco1", "N"],
  ["COc1ccc(-c2csc(NC(=S)NC(=O)c3ccc(S(=O)(=O)N(C)C)cc3)n2)cc1OC", "N"],
  ["COC(=O)c1scc(C)c1NC(=O)c1ccc(Cl)cc1", "N"],
  ["Cc1nc2nc(-c3ccc(Cl)cc3)cn2nc1C", "N"]
]}

----------
experiment: NOD1 signaling inhibitors, primary screen, cell-based, luminescence, uHTS (AID 1578); settings: NOD1-driven NF-kB luciferase reporter cells, at 4 µM;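 also: HEK-293T reporter cells stimulated with the NOD1 agonist gamma-tri-DAP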
Hit rate of the full screen: of about 290,000 compounds, about 3,000 (1%) were called active. Rule as the data show it: active = inhibition mostly above about 36% (no sharp cut-off); inactive = mostly below about 34%. The list comes from a sample in which actives are over-represented; it also holds close analogues and randomly drawn compounds.
Labels: active, inactive

{"columns": ["compound", "assigned.category"],
 "data": [
  ["CCN1CCN(C(=O)c2cc(COc3ccc4ncccc4c3)on2)CC1", "inactive"],
  ["CC(=O)Nc1ccccc1C(F)(F)F", "inactive"],
  ["CN1C2=CC=CC=CC2=[N+](C)C12C([N+](=O)[O-])=CC(=[N+]([O-])[O-])C=C2[N+](=O)[O-] (stereo not drawn)", "active"],
  ["O=C(O)c1ccc(S(=O)(=O)NCC2CCCCC2)cc1", "inactive"],
  ["CC(C)[N+]1=C2C=CC=CC=C2SC12C([N+](=O)[O-])=CC(=[N+]([O-])[O-])C=C2[N+](=O)[O-] (stereo not drawn)", "inactive"],
  ["O=C(CCC(=O)NC1CCCCCC1)Nc1nnc(C(F)(F)F)s1", "inactive"],
  ["COc1ccc(CNC(=O)C(c2cccs2)N(Cc2ccco2)C(=O)Cc2cccs2)cc1 (stereo not drawn)", "inactive"],
  ["CCCC(c1nnnn1C(C)(C)C)N1CCN(c2ccccc2)CC1 (stereo not drawn)", "inactive"],
  ["CCN1CCN(CC(=O)N/N=C/c2cc(Br)cs2)CC1", "active"],
  ["Cc1cc(C(=O)Nc2nnc(C(F)(F)F)s2)cs1", "inactive"],
  ["COc1ccc(CNC(=O)C(c2ccco2)N(Cc2cccs2)C(=O)Cc2cccs2)cc1 (stereo not drawn)", "inactive"],
  ["CN1C2=CC=CC=CC2=[N+](C)C12C=CC(=[N+]([O-])[O-])C=C2[N+](=O)[O-] (stereo not drawn)", "inactive"],
  ["CCOC(=O)c1ccc(NC(=O)Cn2cnc3cc(C)c(C)cc32)cc1", "active"],
  ["Cc1ccc(C)c(SCC(=O)NNC(=O)c2ccccc2)c1", "inactive"],
  ["CCCn1c(N)c(N(CCOC)C(=O)/C=C/c2cccc(Cl)c2)c(=O)[nH]c1=O", "inactive"],
  ["COc1ccc(C(=O)/C=C/c2ccc(OC)c(O)c2)c(F)c1", "inactive"],
  ["CC(C)Cc1ccc(CN2CCC(n3nccc3NC(=O)C3CCCC3)CC2)cc1", "inactive"],
  ["Cc1nccn1CC(=O)N/N=C/c1cc(Br)cs1", "inactive"],
  ["O=C(N/N=C/c1ccc(-c2cccc(C(F)(F)F)c2)o1)c1ccccc1Br", "inactive"],
  ["COc1ccc(/C=C/C(=O)c2ccc(Cl)s2)cc1O", "inactive"],
  ["COC(=O)CC1=NN(c2nc3ccccc3s2)C(=O)/C1=C/N(C)C", "inactive"],
  ["COc1cc(/C=C/C(=O)c2ccc(Cl)s2)cc(OC)c1O", "active"],
  ["CCC(C(=O)OC(C)C(=O)Nc1ccc(Cl)cn1)c1ccccc1 (stereo not drawn)", "inactive"],
  ["N#Cc1nc(Cc2ccccc2)oc1NCc1cccnc1", "inactive"],
  ["N#Cc1nc(Cc2ccccc2)oc1NCc1ccccc1Cl", "active"],
  ["COC(=O)c1ccccc1NC(=O)Cn1cnc2cc(C)c(C)cc21", "inactive"],
  ["COc1ccc(-c2cc(-c3ccccc3)nc(Cl)n2)cc1OC", "inactive"],
  ["COc1ccc(CNC(=O)C(c2ccc(C)o2)N(Cc2cccs2)C(=O)Cc2cccs2)cc1 (stereo not drawn)", "active"],
  ["O=C(CSc1nc2scc(-c3ccccc3)c2c(=O)[nH]1)N1CCCCC1", "inactive"],
  ["Cc1cc(-c2ccc(C(C)C)c(S(=O)(=O)N3CCN(c4ccccc4)CC3)c2)on1", "inactive"],
  ["O=C(CCC1CCCCC1)Nc1nnc(C(F)(F)F)s1", "active"],
  ["O=C(NC1CCCC1)c1cc(COc2ccc3ncccc3c2)on1", "inactive"],
  ["COc1ccc(OCC(O)CNC2CCCC2)cc1 (stereo not drawn)", "inactive"],
  ["COc1cc(OC)cc(C(=O)N2CCC3(CC2)NCCc2[nH]cnc23)c1", "inactive"],
  ["CC(=O)c1ccc(OCc2cc(C(=O)NC3CCCCC3)no2)cc1", "inactive"],
  ["Cc1sc(NC(=O)CSc2nc(O)cc(=O)[nH]2)nc1-c1ccccc1", "inactive"],
  ["Cc1ccc(F)cc1CNC(=O)c1cc(COc2ccc3ncccc3c2)on1", "active"],
  ["Cc1csc(=S)n1-c1ccccc1", "inactive"]
]}

----------
test: NOD1 signaling inhibitors, primary screen, cell-based, luminescence, uHTS (AID 1578); settings: NOD1-driven NF-kB luciferase reporter cells, at 4 µM, hits give high values;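 also: HEK-293T reporter cells stimulated with the NOD1 agonist gamma-tri-DAP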
The whole screen tested about 290,000 compounds, of which about 3,000 (1%) were called active. What follows is part of a selection rich in actives, with near analogues and random picks from the rest.

{"columns": ["molecule", "display.unit", "inhibition"],
 "data": [
  ["COc1ccccc1CNC(=O)C(C)n1nc(C)n2c(cc3occc32)c1=O (stereo not given)", "%", -26.7],
  ["O=C(Cc1c(O)c2ccccc2oc1=O)c1ccc(C(F)(F)F)cc1", "%", -10.7],
  ["N#Cc1ccc(OCC(O)CS(=O)(=O)c2ccccc2)cc1 (stereo not given)", "%", -22.8],
  ["OCCN1CCN(Cc2cc(Cl)c3cccnc3c2O)CC1", "%", 26.4],
  ["O=C(c1cc2ccccn2n1)N1CCN(c2cccc(C(F)(F)F)c2)CC1", "%", 19.8],
  ["CC(C)(C)OC(=O)N/N=C/c1cccn1-c1ccc([N+](=O)[O-])cc1", "%", -6.6],
  ["Cc1c(C(=O)N2CCOCC2)sc(NC(=O)c2ccc([N+](=O)[O-])cc2)c1C#N", "%", -2.6],
  ["Cc1cc(C)c(NC(=S)N(CCCN2CCN(C)CC2)Cc2cccs2)c(C)c1", "%", -25.1],
  ["CCOC(=O)N1CCN(Cc2cc(Cl)c3cccnc3c2O)CC1", "%", -1.5],
  ["COc1ccc(-c2csc3ncnc(Cl)c23)cc1", "%", -16.4]
]}
